Test system: 12 p53 wild-type, patient-derived mesothelioma cell lines
Test: 72-hour Alamar Blue proliferation assay, panel
Assay type: cell-based
Test Settings: Homo sapiens, in 11 cell lines
Endpoint Label: IC50

// query IC50 value for entry CC[C@@](O)(c1cc(F)c2c(c1)C(=O)N([C@H](c1ccc(Cl)cc1)[C@H](C)C(=O)O)[C@@]2(OC)c1ccc(Cl)cc1)C1CCOCC1 < 400 nM

* * *

Test system: #19 mesothelioma cell line
Test: 72-hour Alamar Blue proliferation assay
Type: cell-based
Test Settings: Homo sapiens, read-out: Mean Compound 1 Proliferation IC50 (μM), cell line #19
Endpoint Label: IC50 (µM)
Report only the number, with the unit µM understood.

// query IC50 value for entry CC[C@@](O)(c1cc(F)c2c(c1)C(=O)N([C@H](c1ccc(Cl)cc1)[C@H](C)C(=O)O)[C@@]2(OC)c1ccc(Cl)cc1)C1CCOCC1 [Compound 1] 0.17

* * *

Tested on: #24 mesothelioma cell line
Test: 72-hour Alamar Blue proliferation assay
Type: cell-based
Test Settings: Homo sapiens, read-out: Mean Compound 1 Proliferation IC50 (μM), cell line #24
Endpoint Label: IC50 (µM)
Report only the number, with the unit µM understood.

// query IC50 value for entry CC[C@@](O)(c1cc(F)c2c(c1)C(=O)N([C@H](c1ccc(Cl)cc1)[C@H](C)C(=O)O)[C@@]2(OC)c1ccc(Cl)cc1)C1CCOCC1 [Compound 1] 0.094

* * *

Test system: SN40R2 (p53 mutated, MDM2 amplified osteosarcoma)
Test: Protocol A: SRB growth inhibition assay
Test Settings: read-out: SN40R2 IC50 (μM) (Protocol A)
Form field: IC50 (one value per entry).
Report only the number, with the unit µM understood.

Molecule	IC50 (µM)
CCC(O)(c1cc(F)c2c(c1)C(=O)N(Cc1ncc(Cl)cc1O)[C@@]2(OCCO)c1ccc(Cl)cc1)c1cn(C)cn1 (some centres unmarked)	38

Consider the additional molecule presented here.
Provide the documented IC50 with SN40R2 (p53 mutated, MDM2 amplified osteosarcoma) as the system for CCC(O)(c1cc(F)c2c(c1)C(=O)N(Cc1ccc(C#N)cn1)[C@@]2(O[C@H]1CCOC1)c1ccc(Cl)cc1)C1(F)CCOCC1 (some centres unmarked) 29
